# Tested on: primary human hepatic stellate cells (donor 1)
# procedure.details: scaled lipid accumulation score (0 = DMSO-like, 1 = nortriptyline-like); higher = stronger HSC inactivation (lipid re-accumulation), active = hit call of the paper
# condition.notes: library stock concentration: 10 mM; 48 h
The whole screen tested about 5,800 compounds, of which about 620 (11%) showed activity.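 How the source made its calls: active = score above a cut-off or among the top three wells of a plate; in these data no inactive exceeds 0.85.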 What follows is part of a selection rich in actives, with near analogues and random picks from the rest.
Possible outcomes: true (1) (active), false (0) (inactive)

>>> category_label("C=CCc1ccccc1OCC(O)CNC1(C)CCC(C(C)(C)NC(=O)CBr)CC1 (stereo unspecified) [Bromoacetyl alprenolol menthane]")
"false (0)"
>>> category_label("C[C@@H]1O[C@@H](O[C@H]2C[C@@H](O)[C@]3(CO)[C@H]4[C@H](O)C[C@]5(C)[C@@H](C6=CC(=O)OC6)CC[C@]5(O)[C@@H]4CC[C@]3(O)C2)[C@H](O)[C@H](O)[C@H]1O [Ouabain]")
"true (1)"
>>> category_label("CO[C@H]1[C@H](O)[C@@H](O[C@H]2CC[C@]3(C=O)C4CC[C@]5(C)[C@@H](C6=CC(=O)OC6)CC[C@]5(O)C4CC[C@@H]3C2)O[C@@H](C)[C@@H]1O (stereo partly specified) [Peruvoside]")
"true (1)"
>>> category_label("COc1ccc2c(c1OC)C(=O)OC2C1c2cc3c(cc2CCN1C)OCO3 (single isomer, unassigned; (+)) [(+)-Hydrastine]")
"false (0)"
>>> category_label("C[C@]12CC[C@H](O)C[C@@H]1CC[C@@H]1[C@@H]2CC[C@]2(C)C(=O)CC[C@@H]12 [Epiandrosterone]")
"false (0)"
>>> category_label("CN(C)NC(=O)CCC(=O)O [Daminozide]")
"false (0)"

###

# Test system: primary human hepatic stellate cells (donor 1)
# procedure.details: scaled lipid accumulation score (0 = DMSO-like, 1 = nortriptyline-like); higher = stronger HSC inactivation (lipid re-accumulation), active = hit call of the paper
# condition.notes: 48 h
Structures can show the parent of a compound that is named as a salt. The campaign covered roughly 5,800 compounds. About 620 (11%) showed activity.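 How the source made its calls: active = score above a cut-off or among the top three wells of a plate; in these data no inactive exceeds 0.85.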 The sample holds actives, similar compounds and a random draw of the others, so the mix is not that of the screen.
Possible outcomes: YES (active), NO (inactive)

>>> category_label("CN1CCC2=C[C@H](O)[C@H]3OC(=O)c4cc5c(cc4[C@H]3[C@@H]21)OCO5 [Hippeastrine hydrobromide]")
"NO"
>>> category_label("C[C@H]1O[C@@H](O[C@H]2CC[C@]3(C=O)[C@H]4CC[C@]5(C)[C@@H](C6=CC(=O)OC6)CC[C@]5(O)[C@@H]4CC[C@]3(O)C2)C[C@H](O)[C@@H]1O [Helveticoside]")
"NO"
>>> category_label("CN1[C@@H]2CC[C@H]1C[C@@H](OC1c3ccccc3CCc3ccccc31)C2 [Deptropine citrate]")
"NO"
>>> category_label("C/C=C1/C[N+]2(C)CCC34C(=C(C=O)[C@H]1C[C@@H]32)Nc1ccccc14 (stereo not given in full) [Fluorocurarine chloride]")
"NO"
>>> category_label("C[C@]12CC[C@H]3[C@@H](CC[C@]4(O)C[C@@H](O)CC[C@]34C=O)[C@@]1(O)CC[C@@H]2C1=CC(=O)OC1 [Strophanthidin]")
"YES"

###

# System: primary human hepatic stellate cells (donor 1)
# procedure.details: scaled lipid accumulation score (0 = DMSO-like, 1 = nortriptyline-like); higher = stronger HSC inactivation (lipid re-accumulation), active = hit call of the paper
# condition.notes: 48 h
Counter-ions that a name gives are not always drawn. The whole screen tested about 5,800 compounds, of which about 620 (11%) showed activity.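 Rule for the calls: active = score above a cut-off or among the top three wells of a plate; in these data no inactive exceeds 0.85.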 This excerpt belongs to a sample that is enriched for actives.
Possible outcomes: active, inactive

>>> category_label("O=C1CC[C@@]2(O)[C@H]3Cc4ccc(O)c5c4[C@@]2(CCN3CC2CC2)[C@H]1O5 [Naltrexone hydrochloride dihydrate]")
"inactive"
>>> category_label("C[C@]12CC[C@H](O)C[C@H]1CC[C@@H]1[C@@H]2C[C@@H](O)[C@]2(C)[C@@H](C3=CC(=O)OC3)CC[C@]12O")
"active"
>>> category_label("CC1=NCCc2c1[nH]c1cc(O)ccc21.Cl.O.O [Harmalol hydrochloride dihydrate]")
"active"
>>> category_label("Cc1c2ccncc2c(C)c2c1[nH]c1ccccc12")
"inactive"
>>> category_label("COc1ccc(CCN2CCC(Nc3nc4ccccc4n3Cc3ccc(F)cc3)CC2)cc1")
"active"
>>> category_label("CC1=C2[C@H]3OC(=O)[C@@H](C)[C@@H]3CC[C@@]2(C)C=CC1=O")
"inactive"
>>> category_label("C[C@@H]1NCCc2cc(O)c(O)cc21 [Salsolinol hydrobromide]")
"inactive"
>>> category_label("COc1cc2c(cc1OC)C(C)NCC2 (stereo not drawn)")
"inactive"
>>> category_label("O[C@@H]1CCCC[C@H]1N1CCC(c2ccccc2)CC1 [L(-)-vesamicol hydrochloride]")
"inactive"
>>> category_label("Clc1ccc(C(OCCN2CCCCC2)c2ccccc2)cc1 (stereo not drawn) [Cloperastine hydrochloride]")
"inactive"
>>> category_label("COc1ccc2c(c1)[nH]c1c(C)nccc12.Cl [Harmine hydrochloride]")
"active"
>>> category_label("COC1=C[C@@H]2C3=C([C@@H]2C1=O)[C@@H](NC(C)=O)CCc1cc(OC)c(OC)c(OC)c13")
"inactive"
>>> category_label("CO[C@@H]1C=C2CCN(C)[C@@H]2C2c3cc4c(cc3C(=O)OC21)OCO4 (stereo partly drawn) [Ungerine nitrate]")
"inactive"
>>> category_label("c1cncc(C2=NCCC2)c1")
"inactive"
>>> category_label("CN1C[C@H](CNC(=O)OCc2ccccc2)C[C@@H]2c3cccc4c3c(cn4C)C[C@H]21")
"active"
>>> category_label("C[C@@H]1O[C@@H](O[C@H]2C[C@@H](O)[C@]3(CO)[C@H]4[C@H](O)C[C@]5(C)[C@@H](C6=CC(=O)OC6)CC[C@]5(O)[C@@H]4CC[C@]3(O)C2)[C@H](O)[C@H](O)[C@H]1O.O.O.O.O.O.O.O.O [Strophantine octahydrate]")
"active"
>>> category_label("CC[C@H]1CN2CCc3cc(OC)c(OC)cc3[C@@H]2C[C@@H]1C[C@H]1NCCc2cc(OC)c(OC)cc21.Cl.Cl [Emetine dihydrochloride]")
"active"
>>> category_label("COc1ccc(C(=O)OC2C[C@H]3CC[C@@H](C2)N3C)cc1OC (stereo partly drawn) [Convolamine hydrochloride]")
"inactive"
>>> category_label("COc1ccc2[nH]c3c(c2c1)CCN=C3C")
"inactive"
>>> category_label("CN1[C@@H](C[C@@H](O)c2ccccc2)CCC[C@H]1C[C@H](O)c1ccccc1 [Lobelanidine hydrochloride]")
"inactive"
>>> category_label("C[C@]12CC[C@@H](O)C[C@@H]1CC[C@@H]1[C@@H]2CC[C@]2(C)C(=O)CC[C@@H]12")
"inactive"
>>> category_label("CC[C@@]1([C@@H]2O[C@@H]([C@H]3O[C@@](O)(CO)[C@H](C)C[C@@H]3C)C[C@@H]2C)CC[C@H]([C@]2(C)CC[C@]3(C[C@H](O)[C@@H](C)[C@@H]([C@@H](C)[C@@H](OC)[C@H](C)C(=O)O)O3)O2)O1 [Monensin sodium salt]")
"inactive"
>>> category_label("C[C@]12CC[C@H](O)C[C@H]1CC[C@@H]1[C@@H]2CC[C@]2(C)[C@@H](C3=CC(=O)OC3)CC[C@]12O")
"active"
>>> category_label("COc1cc([C@@H]2c3cc4c(cc3[C@H](O)[C@H]3COC(=O)[C@H]23)OCO4)cc(OC)c1OC")
"inactive"
>>> category_label("CCCCCC[C@H]1C(=O)O[C@H](C)[C@H](NC(=O)c2cccc(NC=O)c2O)C(=O)O[C@@H](C)[C@@H]1OC(=O)CC(C)C [Antimycin A]")
"inactive"
>>> category_label("C=C[C@]12CN(C)[C@@H]3[C@H]4CO[C@H](C[C@H]41)[C@]1(C(=O)Nc4ccccc41)[C@@H]32")
"inactive"
>>> category_label("C=C1C/C(=C/C)C(=O)O[C@@H]2CCN3CC=C(COC(=O)[C@]1(C)O)[C@H]23")
"inactive"
>>> category_label("COc1cc2c(c(OC)c1OC)-c1ccc(O)c(=O)cc1[C@@H](N)CC2")
"inactive"

###

# Test system: primary human hepatic stellate cells (donor 1)
# procedure.details: scaled lipid accumulation score (0 = DMSO-like, 1 = nortriptyline-like); higher = stronger HSC inactivation (lipid re-accumulation), active = hit call of the paper
# condition.notes: library stock concentration: 10 mM; 48 h
Where a name gives a salt, the structure may show the parent alone. Screen size: about 5,800 compounds; about 620 (11%) showed activity.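 How the source made its calls: active = score above a cut-off or among the top three wells of a plate; in these data no inactive exceeds 0.85.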 The entries come from a sample that favours actives as a whole.
Possible outcomes: True for active, False for inactive

>>> category_label("CN1C2CCC1CC(OC(c1ccccc1)c1ccc(Cl)cc1)C2.Cl (stereo not drawn)")
"True"
>>> category_label("COc1ccc2[nH]c3c(c2c1)CCNC3 [6-Methoxy-1,2,3,4-tetrahydro-9H-pyrido[3,4b] indole]")
"False"
>>> category_label("CN(C(=O)Cc1ccccc1)C(CN1CCCC1)c1ccccc1 (stereo not drawn) [N-MPPP Hydrochloride]")
"False"
>>> category_label("CC(C)(C)c1cc(C=C(C#N)C#N)cc(C(C)(C)C)c1O")
"True"
>>> category_label("N[C@@H]1C[C@H]1c1ccccc1.N[C@H]1C[C@@H]1c1ccccc1")
"False"
>>> category_label("CN1[C@H]2C[C@H](OC(=O)[C@H](CO)c3ccccc3)C[C@@H]1[C@@H](O)C2")
"False"
>>> category_label("CC(C)(C)OC(=O)NC1[C@H]2CNC[C@@H]12 (stereo partly drawn)")
"False"
>>> category_label("Cc1sc2c(c1C)C(c1ccc(Cl)cc1)=N[C@H](CC(=O)OC(C)(C)C)c1nnc(C)n1-2")
"False"
>>> category_label("CN(C(=O)Cc1ccc(Cl)c(Cl)c1)[C@H](CN1CCCC1)c1ccccc1.Cl [ICI-199,441 hydrochloride]")
"True"
>>> category_label("CC(C)(C)c1cc(C=C(C#N)C#N)cc(Br)c1O")
"False"
>>> category_label("COc1cc([C@@H]2c3cc4c(cc3[C@H](O)[C@H]3COC(=O)[C@H]23)OCO4)cc(OC)c1OC [Podofilox]")
"False"
>>> category_label("CN(C(=O)Cc1ccc(Cl)c(Cl)c1)C(CN1CCCC1)c1cccc(OCC(=O)O)c1 (stereo not drawn) [ICI 204,448 hydrochloride]")
"False"
>>> category_label("COc1ccc2[nH]cc(C3=CCNCC3)c2c1.COc1ccc2[nH]cc(C3=CCNCC3)c2c1.O=C(O)CCC(=O)O")
"True"
>>> category_label("O=c1[nH]c2ccccc2n1C1CCN(CCCC(c2ccc(F)cc2)c2ccc(F)cc2)CC1 [Pimozide]")
"True"
>>> category_label("COc1cc(C(O)CN)ccc1O (stereo not drawn)")
"False"
>>> category_label("O=C1C=C2C(=CCOC2O)O1 (stereo not drawn)")
"True"
>>> category_label("COc1cc([C@@H]2c3cc4c(cc3[C@H](O)[C@H]3COC(=O)[C@H]23)OCO4)cc(OC)c1OC [Podophyllotoxin]")
"False"
>>> category_label("CN1[C@@H]2CC[C@H]1C[C@@H](OC(c1ccccc1)c1ccccc1N)C2 (stereo partly drawn)")
"False"

Values were extracted from the supplement of paper PMC9135407.
